- experiment notes: yeast display, Sf9 membrane polyspecificity reagent, FACS + sequencing; frameworks hold sequencing errors
metric name: polyreactivity (PSR sort gate)

- construct sequence: "QVQLVESGGGLVQAGGSLRLSCAASGSTFYKYAMGWYRQAPGKERELVASITWSGTSTYYADSVKGRFTISRDKAKNTVYLQMNSLKPEDTAVYYCNAGLESYYWGYTWEFDYWGQGTQVTVSS"
  observed: "low polyreactivity"
- construct sequence: "QVQLVESGGGLVQAGGSLRLSCAASGSIFVVYSMGWYRQAPGKERELVAGISYGDNTNYADSVKGRFTISRDNAKNTVYLQMNSLKPVDTAVYYCNADGTSRNLEGFDYWGQGTQVTVSS"
  observed: "low polyreactivity"

---

- experiment notes: yeast display, Sf9 membrane polyspecificity reagent, FACS + sequencing; frameworks hold sequencing errors

- construct sequence: "QVQLVESGGGLVQAGGSLRLSCAASGSISTNYAMGWSRQAPGKERELVAAISSSGGSTYYADSVKGRFTISRDNAKNTVYLQMNSLKPEDTAVYYCRYKFGYWGQGTQVTVSS"
  polyreactivity (PSR sort gate): "high polyreactivity"
- construct sequence: "QVQLVESGGGLVQAGGSLRLSCAASGRIFERYAMGWYRQAPGKERELVAAISVSGSGTYYADSVKGRFTISRDNAKNTVYLQMNSLKPEDTAVYYCAADASLLGLFQGYDYWGQGTQVTVSS"
  polyreactivity (PSR sort gate): "low polyreactivity"
- construct sequence: "QVQLVESGGGLVQAGGSLRLSCAASGFTFAWYAMGWYRQAPGKERELVAAINWSGGRTYYADSVKGRFTISRDNAKNTVYLQMNSLKPEDTAVYYCAAPHLVKRSEFDYWGQGTQVTVSS"
  polyreactivity (PSR sort gate): "high polyreactivity"
- construct sequence: "QVQLVESGGGLVQAGGSLRLSCAASGFILVDYAMGWYRQAPGKERELVAAITYDGGSTYYADSVKGRFTISRDNAKNTVYLQMNSLKPEDTAVYYCAADYGYSQYILGQFRLEELDYWGQGTQVTVSS"
  polyreactivity (PSR sort gate): "low polyreactivity"
- construct sequence: "QVQLVESGGGLVQAGGRLRLSCAASGRIFTYNAMGWYRQAPGKEREFVAAISSGGSTTYADSVKGRFTISRDNAKNTVYLQMNSRKPEDTAVYYCAARGWRFAIIEYEYWGQGTQVTVSS"
  polyreactivity (PSR sort gate): "low polyreactivity"
- construct sequence: "QVQLVESGGGLVQAGGSLRLSCAASGGILWGNGMGWYRQAPGKERELVAAISTGGSTNYADSVKGRFTISRDNAKNTVYLQMNSLKPEETAVYYCAGGAGGVRYSFYWNDYWGQGTQVTVSS"
  polyreactivity (PSR sort gate): "high polyreactivity"
- construct sequence: "QVQLVESGGGLVQAGGSVRLSCAASGSIFGYYALGWYRQAPGTERELVAAISSGGSTKYADSVKGRFTISRDNAKNTVYLQMNSLKPEDTAVYYCATRIRSGSYPYPRYDYWGQGTQVTVSS"
  polyreactivity (PSR sort gate): "high polyreactivity"
- construct sequence: "QVQLVESGGGLVQAGGSLRLSCAASGFIFHDNAMGWYRQAPGKERELVAAIRSTGSTNYADSVKGRFTISRDNAKNTVYLQMNSLKPEDTAVYYCNAGKYQSDTPSLDPTEYPAFYYWGQGTQVTVSS"
  polyreactivity (PSR sort gate): "low polyreactivity"
- construct sequence: "QVQLVETAAGLVQAGGSLRLSCAASGSIYYSYAMGGYRQAPGKERELVAAITDSGDSTYYADSVKGRFTISRDNAKNTVYLQMNSLKPEDTAVYYCAAGFYPYYYWGLGTQVTVSS"
  polyreactivity (PSR sort gate): "low polyreactivity"
- construct sequence: "QVQLVESGGGLVQAGGSLRLSCAASGLTFSDYTMGWYRQAPGKERELVAAISDSTGSTYYADSVKGRFTMSRDNAKNTVYLQMNSLKPEDTAVYNCIAYGYYHRLYSYTYGYWGQGTQVTVSS"
  polyreactivity (PSR sort gate): "low polyreactivity"
- construct sequence: "KVQLVESGGGLVQAGGSLRLSCAASGSIFIGYAMGCYRQAPGKERELVAAISYRGGSTYYADSVKGRFTISRDNAKNTVYLQMNSLKPEDTAVYYCATVLPVQQTRLGYSSRYYYWGQGTQVTVSS"
  polyreactivity (PSR sort gate): "high polyreactivity"

---

- experiment notes: yeast display, Sf9 membrane polyspecificity reagent, FACS + sequencing; frameworks hold sequencing errors
metric name: polyreactivity (PSR sort gate)

- construct sequence: "QVQLVESGGGLVQAGGSLRLSCAASGRIFRWYVMGWYRQAPGKERELVASISSGGITYYADSVKGRFTISRDNAKNTVYLQMNSLKPEDTAVYYCNARRQPYRTSGSEMGYWGQGTQVTVSS"
  observed: "high polyreactivity"
- construct sequence: "QVQLVESGGGLVQAGGSLRLSCAASGRIIPRNAMGWYRQAPGKEMELVAGISRGGSTYYADSVKGRFTISRDNAKNTVYLQMNSLKTEDTAVYYCAAAYQKSPITPKMDYWGQGTQVTVSS"
  observed: "low polyreactivity"
- construct sequence: "QVQLVESAGGLVQAGGSLRLSCAASGLTFYLYVMGWSRQATGKERELVAAISRRGGTTYYADSVKGRFTISRDNAKNTVYLQMNSLKPEDTAVYYCNKADAVGRDYDYWGQGTQVTVSS"
  observed: "high polyreactivity"
- construct sequence: "QVQLVESGGGLVQAGGSLRLSCAASGYTFYFYAMGWYRQAPGKEREFVAAIRSSGGRTYYADSVKGRFTISRDNAKNTVYLQMNSLKPEDTAVYYCAAAGYYYSVDGAGPRYDYWGQGTQVTVSS"
  observed: "low polyreactivity"
- construct sequence: "QVQLVESGGGLVQAGGSLRLSCAASGSISVVNMGWYRQAPGKERELVASITSSGSTTYADSVKGRFTISRDNAKNTVYLQMNSLKPEDTAVYYCAAVRCRSQPYWYHSMDHWGQGTQVTVSS"
  observed: "low polyreactivity"
- construct sequence: "QVQLVESGGGLVQAGGSLRLSWAASGSTFQSYAMGLSRQAPGKERELVAAISFSGGSTYYADSVKGRFTISRDNAKNTVYLQMHSLKPEDTAVYYCAADVAYVEYDYWGQGTQVTVSS"
  observed: "low polyreactivity"
- construct sequence: "QVQLVETGGGLVQAGGSLRLSCAASGRTFRWYAMGWYRQAPGKERELVADISSVGSTDYADSVKGRFTISRDNAKNTVYLQMNSLKPEDTAVYYCAADFSPRRYHNRSFGYWGQGTQVTVSS"
  observed: "low polyreactivity"
- construct sequence: "QVQLVESGGGLVQAGGSLRLSCAASGSTFLYYAMGCYRQAPGKDRELVARITTRVGRTYYADSVKGRFTISRDNAKNTVYLQMNSLKPEDTAVYYCNAPYLKSRFRAYYHWGQGTQVTVAS"
  observed: "high polyreactivity"
- construct sequence: "QVQLVESGGGLVQAGGSLRLSCAASGFTFESNAIGWYRQAPGKERELVAAISSSGGSTYYADSVKGRFTISRDNAKNTVYLQMNSLKPEDTAVYYCNAYSLYYGGYDYWGQGTQVTVSS"
  observed: "high polyreactivity"
- construct sequence: "QVQLVESGGGLVQAGGSLRLSCAASGRIFAGYALGWYRPAPGKERELVATSTRGGSTNYADSVKRPFTISRDNAKNTVYLQMNSLKPEDTAVYYCAAPYSSYKVRPYDYWGQGTQVTVSS"
  observed: "low polyreactivity"
- construct sequence: "QVQLVESGVGLVQAGGSLRLSCAASGIIFFFYAMGWYIQAPGKERELVAAISDDGVSTDYADSVKGRFTISRDNAKNTVYLQMNSLKPEDTAVYYCSAKNERVYPWFSFGYWGQGTQVTVSS"
  observed: "low polyreactivity"
- construct sequence: "QVQLVESGGGLVQAGGSLRLSCAASGSIFGENAMGWYRQAPGKERELVAAITWSGASTYYADSVKGRFTISRDNAKNTVYLQMNSLKPEETAVYYCNADRYVRYSTFDYWGQGTQVTVSS"
  observed: "high polyreactivity"
- construct sequence: "QDQLVESGGRLVQAGGSLRLSCAASGITFSRYAMGWYRQAPGKEWELVAAISCSGARTYYADSVKGRFTISRDNAKNTVYLQMNSLKPEDTAVYYCDRFLRNFKTYDYWGQGTQLTVSS"
  observed: "high polyreactivity"
- construct sequence: "QVQLVESGGGLVQAGGSLRLSCAASGRTFYLYAMGWYRQAPGKERELVAAITSGGSTYYADSVKGRFTISRDNAKNTVYLQMNSLKPEDTAVYYCAAYAYLTAGTSRRRGYWGQGTQVTVSS"
  observed: "high polyreactivity"
- construct sequence: "QVQLVESGGGLVQAGGSLRLSCAASGSIFPQNAMAWYRQAPGKERELVASISSGGRTNYADSVKGRFTISRDNAKNTVYLQMNSLKPEDTAVYYCNARYRGYYGPKTHGVTYYYWGQGTQVTVSS"
  observed: "low polyreactivity"
- construct sequence: "QVQLVESGGGLVQAGGSLRLSCAASGSIFVGYDMGWYRQAPGKARELVAAITRDGDTNYADSVKGRFTISRDNAKNTVYLQMNSLKPEDTAVYYCAADRWLYSWFFNYDQGDYWGQGTQVTVSS"
  observed: "low polyreactivity"
- construct sequence: "QVQLVESGGGLVQAGGSLRLSCAASGITLAYNAMGLYRQAPGTEREFVAAIDVCGGRTYYADSVKGRFTISRDNAKNTVYLQMNSLKPEDTAVYYCAAADIIDHSFPYDYWGQGTQVTVSS"
  observed: "low polyreactivity"
- construct sequence: "QVQLVESGGGLVQAGGSLRLSCAASGRTFARNAMGWYRQAPGKERELVASINRGGRTNYADSVKGRFTISRDNAKNTVYLQMNSLKPEDTAVYYCAKYILGVGPFFSTYDYWGQGTQVTVSS"
  observed: "high polyreactivity"
- construct sequence: "QVQLVESGGGLVQAGGSLRLSCAASGSTFKWYAMGWYRQAPGKERELVAAISSRGGSTYYADSVKGRFTISRDNAKNTVYLQMNSLKPEDTAVYYCNALVRPQWSYNDFDYWGQGTQVTVSS"
  observed: "high polyreactivity"
- construct sequence: "QVQLVESGGGLVQAGGSLRLSCAASGSTFYYYAMGWYRQAPGKESELVAAISPSGDSTYNADSVKGRFTISRENSKNTVYLQMNSLKPEDTAVYYFAAQYYFYPQEFDDWGQGTQVTVSS"
  observed: "low polyreactivity"
- construct sequence: "QVQLVESGGGLVQAGGSLRLSCAASGSTFRRYAMGWYRQAPGKERELVATITSGGRTNYADSVKGRFTISRDNAKNTVYLQMNSLKPEDTAVYYCADRPYFYERSAGYYWGQGTQVTVSS"
  observed: "high polyreactivity"
